Value source: patent US20150368338A1

- system-tested: T1, IFN-αWA (human, UniProt P05015 24-189)
- T1 construct: also called IFN-α16; alpha WA
- protocol-text: ProteOn, one antigen concentration
Please provide measured pKd for the entries that follow.
Give bare numbers, as −log10 of the molar value.

Reference set (6 entries):
IFWM3320 (antibody, V domains shown, VH IFWH591, VL IFWL1047; converted mAb; also called IFWB3055) VH: EVQLVQSGAEVKKPGESLKISCKGSGYSFTSYWIGWVRQMPGKGLEWMGIIDPSDSDTRYSPSFQGQVTISADKSISTAYLQWSSLKASDTAMYYCARHPGLNWAPDFDYWGQGTLVTVSS VL: DIQMTQSPSSLSASVGDRVTITCRASQSINGVLNWYQQKPGKAPKLLIYFASSLQSGVPSRFSGSGSGTDFTLTISSLQPEDFATYYCQQSHDFPLTFGQGTKVEIK :: 10.39
IFWM3348 (antibody, V domains shown, VH IFWH624, VL IFWL1006; converted mAb; also called IFWB3083) VH: EVQLVQSGAEVKKPGESLKISCKGSGYSFTSYWIGWVRQMPGKGLEWMGIIDPSDSDTAYSPSFQGQVTISADKSISTAYLQWSSLKASDTAMYYCARHPGLNWAPDFDYWGQGTLVTVSS VL: DIQMTQSPSSLSASVGDRVTITCRASQSIGGFLNWYQQKPGKAPKLLIYFASSLQSGVPSRFSGSGSGTDFTLTISSLQPEDFATYYCQQSYSLPITFGQGTKVEIK :: 10.31
IFWM3314 (antibody, V domains shown, VH IFWH591, VL IFWL1014; converted mAb; also called IFWB3049) VH: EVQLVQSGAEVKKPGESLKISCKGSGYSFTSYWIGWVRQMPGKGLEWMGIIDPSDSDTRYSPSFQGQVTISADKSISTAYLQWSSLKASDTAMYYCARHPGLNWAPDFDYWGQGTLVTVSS VL: DIQMTQSPSSLSASVGDRVTITCRASQSIDRALNWYQQKPGKAPKLLIYFASSLQSGVPSRFSGSGSGTDFTLTISSLQPEDFATYYCQQSFDFPLTFGQGTKVEIK :: 10.38
IFWM3313 (antibody, V domains shown, VH IFWH591, VL IFWL1013; converted mAb; also called IFWB3048) VH: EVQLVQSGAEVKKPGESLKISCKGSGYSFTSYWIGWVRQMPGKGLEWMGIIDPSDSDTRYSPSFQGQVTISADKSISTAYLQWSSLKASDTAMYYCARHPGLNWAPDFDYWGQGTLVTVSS VL: DIQMTQSPSSLSASVGDRVTITCRASQSINNFLNWYQQKPGKAPKLLIYFASSLQSGVPSRFSGSGSGTDFTLTISSLQPEDFATYYCQQSFNLPITFGQGTKVEIK :: 9.81
IFWM3301 (antibody, V domains shown, VH IFWH591, VL IFWL983; converted mAb; also called IFWB3036) VH: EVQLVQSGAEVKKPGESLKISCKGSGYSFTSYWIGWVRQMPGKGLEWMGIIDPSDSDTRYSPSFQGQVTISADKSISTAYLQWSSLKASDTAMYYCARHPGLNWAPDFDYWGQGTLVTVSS VL: DIQMTQSPSSLSASVGDRVTITCRASQSIDGSLNWYQQKPGKAPKLLIYFASSLQSGVPSRFSGSGSGTDFTLTISSLQPEDFATYYCQQSYDFPLTFGQGTKVEIK :: 10.10
IFWM3334 (antibody, V domains shown, VH IFWH591, VL IFWL1082; converted mAb; also called IFWB3069) VH: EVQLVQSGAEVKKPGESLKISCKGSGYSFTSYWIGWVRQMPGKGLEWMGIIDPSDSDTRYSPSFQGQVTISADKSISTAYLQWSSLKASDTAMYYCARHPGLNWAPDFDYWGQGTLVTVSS VL: DIQMTQSPSSLSASVGDRVTITCRASQSIRNNSLNWYQQKPGKAPKLLIYAASSLQSGVPSRFSGSGSGTDFTLTISSLQPEDFATYYCQQDYNWPLTFGQGTKVEIK :: 9.29

Please fill in: pKd reported for IFWM3355 (antibody, V domains shown, VH IFWH624, VL IFWL1022; converted mAb; also called IFWB3090) VH: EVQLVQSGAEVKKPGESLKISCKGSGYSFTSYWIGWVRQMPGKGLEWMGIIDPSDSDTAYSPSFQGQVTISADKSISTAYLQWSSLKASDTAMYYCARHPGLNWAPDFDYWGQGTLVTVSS VL: DIQMTQSPSSLSASVGDRVTITCRASQSINEFLNWYQQKPGKAPKLLIYFASSLQSGVPSRFSGSGSGTDFTLTISSLQPEDFATYYCQQSYSTPLTFGQGTKVEIK = 10.39
